Data origin: PubChem BioAssay AID1963866

Quick reference: viability, T/C of the listed items.
system: PDC KRAS tumor spheroids with HUVEC/MSC, viability; test: Anticancer human tumor 349418-098-R-PDC patient-derived lung adenocarcinoma cell line growth inhibition [KRAS2]; details: second compound 0.316 µM; first compound 0.0316 µM; hits give low values;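 further: spheroids exposed to compounds for seven days before readout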
The reply should contain only the number, in %.

CC1COCCN1c1cc(-c2ccnn2C)c2ccnc(-c3ccn[nH]3)c2n1 (stereo not given) + C=CC(=O)N1CCN(c2nc(OCC3CCCN3C)nc3c2CCN(c2cccc4cccc(C)c24)C3)CC1CC#N ... 33
CCNC(=O)CC1N=C(c2ccc(Cl)cc2)c2cc(OC)ccc2-n2c(C)nnc21 (stereo not given) + COc1cc2nc(C)nc(NC(C)c3cc(N)cc(C(F)(F)F)c3)c2cc1OC1CCOC1 ... 105
COC(=O)c1ccc2c(C(=Nc3ccc(N(C)C(=O)CN4CCN(C)CC4)cc3)c3ccccc3)c(O)[nH]c2c1 + COc1cc2nc(C)nc(NC(C)c3cc(N)cc(C(F)(F)F)c3)c2cc1OC1CCOC1 ... 91.2
CCN1CCN(Cc2ccc(Nc3ncc(F)c(-c4cc(F)c5nc(C)n(C(C)C)c5c4)n3)nc2)CC1 + CNCc1ccccc1-c1csc(C(C)Nc2nc(C)nc3cc(OC)c(OC)cc23)c1 ... 15.1

Give viability, T/C (PDC KRAS tumor spheroids with HUVEC/MSC, viability) of the following compound: COc1cc(Nc2ncc3c(n2)-c2ccc(Cl)cc2C(c2c(F)cccc2OC)=NC3)ccc1C(=O)O + CNCc1ccccc1-c1csc(C(C)Nc2nc(C)nc3cc(OC)c(OC)cc23)c1
51.1
